# System: latently HIV provirus infected Jurkat (T-cell) clone 2D10 cells carrying a GFP-expressing provirus
# assay_remarks: Reactivation of latent HIV provirus (GFP expression) in 2D10 cells
# Format: cell-based, human
# reported_conditions: drug alone, no TNFα or SAHA; drug concentration (Fulvestrant 2.5 μM, Y-134 5 μM, Endoxifen 5 μM, MPP 5 μM, Tamoxifen 10 μM, Gossypol 5 μM, PPT 100 μM, Stilbestrol 5 μM)
# Text: Still other ESR-1 antagonists can be identified and screened for potential induction of latent HIV activation by using cell based assays described in Examples 1 and 2. […] The level of GFP expression can then be measured to determine activation. In another example, the ESR-1 antagonist can be administered to the latently infected primary T-cells (Th17) and phosphorylation of serine 175 of CDK9 can be measured by flow cytometry analysis. […]
experimental_readout: Un-stimulated

For orientation, consider the following solved cases.
• CC/C(=C(/CC)c1ccc(O)cc1)c1ccc(O)cc1 = 6.20%
• C[C@]12CC[C@@H]3c4ccc(O)cc4C[C@@H](CCCCCCCCC[S+]([O-])CCCC(F)(F)C(F)(F)F)[C@H]3[C@@H]1CC[C@@H]2O (stereo partly shown) = 2.68%
• CC/C(=C(\c1ccccc1)c1ccc(OCCN(C)C)cc1)c1ccccc1 = 12.09%
• Cc1c(-c2ccc(O)cc2)nn(-c2ccc(O)cc2)c1-c1ccc(OCCN2CCCCC2)cc1 = 14.49%
• CCCc1c(-c2ccc(O)cc2)nn(-c2ccc(O)cc2)c1-c1ccc(O)cc1 = 3.57%
• Cc1cc2c(C(C)C)c(O)c(O)c(C=O)c2c(O)c1-c1c(C)cc2c(C(C)C)c(O)c(O)c(C=O)c2c1O = 30.58%

Endpoint output: Un-stimulated of CC/C(=C(\c1ccc(O)cc1)c1ccc(OCCNC)cc1)c1ccccc1 [Endoxifen] . Value? 9.70%

---

# System: latently HIV provirus infected Jurkat (T-cell) clone 2D10 cells carrying a GFP-expressing provirus
# assay_remarks: Reactivation of latent HIV provirus (GFP expression) in 2D10 cells
# Format: cell-based, human
# reported_conditions: drug at row concentration plus sub-optimum 250 nM SAHA
Record form. Attribute: 250 nM SAHA drug. Fill in for each entry.
One number for each entry, in %.

Record excerpt, results attached:
• Cc1c(-c2ccc(O)cc2)nn(-c2ccc(O)cc2)c1-c1ccc(OCCN2CCCCC2)cc1 = 31.14
• CC/C(=C(\c1ccccc1)c1ccc(OCCN(C)C)cc1)c1ccccc1 = 22.50
• C[C@]12CC[C@@H]3c4ccc(O)cc4C[C@@H](CCCCCCCCC[S+]([O-])CCCC(F)(F)C(F)(F)F)[C@H]3[C@@H]1CC[C@@H]2O (stereo partly shown) = 17.78

I'd like to know its 250 nM SAHA drug. The compound in question is CC/C(=C(\c1ccc(O)cc1)c1ccc(OCCNC)cc1)c1ccccc1 [Endoxifen] 26.63

The values you see were collected from patent US20160143917A1.
